In this section we review reported log10 of AUC(0-t) values for a set of compounds.
- ASSAY SUMMARY: Cassette pharmacokinetics test in mice
- Format: in vivo, male CD-1 mice
- TEST PARAMETERS: male, CD-1, mouse, plasma, 2.5 mg/kg, PO 2.5 mpk, cassette dosing, read-out: Area under curve AUC0-last
Values are log10 of AUC(0-t) in µM·h.

Consider the worked cases shown below.
Short answer for C[C@H]1CNC(=O)c2cnn3ccc(nc23)N[C@H](C)c2cc(F)ccc2O1 [TPX-0005, Repotrectinib] : log10 of AUC(0-t) was 1.03

Short answer for C[C@H]1Oc2cc(cnc2N)-c2c(nn(C)c2C#N)CN(C)C(=O)c2ccc(F)cc21 [Lorlatinib] : log10 of AUC(0-t) was 1.13

Short answer for CN1CCN(c2ccc(C(=O)Nc3n[nH]c4ccc(Cc5cc(F)cc(F)c5)cc34)c(NC3CCOCC3)c2)CC1 [Entrectinib] : log10 of AUC(0-t) was 0.64

Short answer for C[C@@H](Oc1cc(-c2cnn(C3CCNCC3)c2)cnc1N)c1c(Cl)ccc(F)c1Cl [Crizotinib] : log10 of AUC(0-t) was 0.26

More entries:
Short answer for N#Cc1nn2ccc3nc2c1C(=O)NC1(CC1)COc1ncc(F)cc1[C@H]1CCON31 [WX-001] : log10 of AUC(0-t) was 1.40

----------
- System: Ba/F3 SLC34A2-ROS1-G2032R stably transfected cell line
- ASSAY SUMMARY: Cell proliferation inhibition (CellTiter-Glo), Ba/F3 SLC34A2-ROS1-G2032R
- Format: cell-based
- TEST PARAMETERS: 72 hours, CTG; read-out: Cell half inhibitory concentration IC50, Ba/F3 SLC34A2-ROS1-G2032R
PARAMETER: pIC50
Lab note — pIC50 values are minus log10 of concentrations in M.

Short answer for CC1COc2ncc(F)cc2C2CCON2c2ccn3nc(C#N)c(c3n2)C(=O)N1 (centres unmarked) : pIC50 was 8.03

Next item in the queue.
Short answer for N#Cc1nn2ccc3nc2c1C(=O)NC1CC(C1)Oc1ncc(F)cc1C1CCON31 (centres unmarked) [WX-002B] : pIC50 was 7.70

----------
- ASSAY SUMMARY: Cassette pharmacokinetics test in mice
- Type: in vivo, male CD-1 mice
- TEST PARAMETERS: male, CD-1, mouse, 0.5 mg/kg, IV 0.5 mpk, cassette dosing, plasma, read-out: Starting concentration C0
Short version: C0 at least 1000 nM is label 1, less is label 0.

Request: C0 >= 1000 nM for `C[C@@H](Oc1cc(-c2cnn(C3CCNCC3)c2)cnc1N)c1c(Cl)ccc(F)c1Cl` ?
Response: label 0

Request: C0 >= 1000 nM for `C[C@H]1CNC(=O)c2cnn3ccc(nc23)N[C@H](C)c2cc(F)ccc2O1` ?
Response: label 0

Request: C0 >= 1000 nM for `CN1CCN(c2ccc(C(=O)Nc3n[nH]c4ccc(Cc5cc(F)cc(F)c5)cc34)c(NC3CCOCC3)c2)CC1` ?
Response: label 1

Proceed to the following item.
Request: C0 >= 1000 nM for `C[C@H]1Oc2cc(cnc2N)-c2c(nn(C)c2C#N)CN(C)C(=O)c2ccc(F)cc21` ?
Response: label 0

----------
- ASSAY SUMMARY: Cassette pharmacokinetics test in mice
- Assay type: in vivo, male CD-1 mice
- TEST PARAMETERS: PO 2.5 mpk, cassette dosing, brain, 0.5 h
PARAMETER: Drug concentration in brain at 0.5 hours Brain@0.5 h (nmol/kg)
Reply numerically in nmol/kg, unit not repeated.

Consider the worked cases shown below.
Short answer for `N#Cc1nn2ccc3nc2c1C(=O)NC1(CC1)COc1ncc(F)cc1[C@H]1CCON31` : Drug concentration in brain at 0.5 hours Brain@0.5 h was 486

Short answer for `CN1CCN(c2ccc(C(=O)Nc3n[nH]c4ccc(Cc5cc(F)cc(F)c5)cc34)c(NC3CCOCC3)c2)CC1` : Drug concentration in brain at 0.5 hours Brain@0.5 h was 12.7

Short answer for `C[C@H]1Oc2cc(cnc2N)-c2c(nn(C)c2C#N)CN(C)C(=O)c2ccc(F)cc21` : Drug concentration in brain at 0.5 hours Brain@0.5 h was 622

Next item in the queue.
Short answer for `C[C@H]1CNC(=O)c2cnn3ccc(nc23)N[C@H](C)c2cc(F)ccc2O1` : Drug concentration in brain at 0.5 hours Brain@0.5 h was 42.2
